Data origin, for the record: patent US7964624B1

Known pKi of a selection of molecules
# ASSAY SYSTEM: HCV NS3 protease domain (Hepatitis C virus genotype 1b, UniProt Q9WMX2)
# Construct: The first 181 amino acids of NS3 (residues 1027-1207 of the viral polyprotein); hexa-histidine (C); made in house; host or cells: E. coli BL21/DE3 pLysS
# PROTOCOL DESCRIPTION: biochemical
# RECORDED CONDITIONS: Enzyme Assay 1 (HCV NS3 Protease Domain Peptide Cleavage Assay) activity, apparent Ki class
pKi: −log10 of the molar value.

MOLECULE	pKi
CNC(=O)C(=O)C(CC1CCC1)NC(=O)[C@@H]1C[C@]2(CC(c3cccc(Cl)c3)=NO2)CN1C(=O)[C@@H](NC(=O)CC1CCCCC1)C(C)(C)C (some centres unmarked)	6.30 to 7.00
CCC[C@H](NC(=O)[C@@H]1C[C@]2(CC(c3cccc(Cl)c3)=NO2)CN1C(=O)[C@@H](NC(=O)CC1CCCCC1)C(C)(C)C)C(=O)C(=O)NC	6.30 to 7.00
CCC[C@H](NC(=O)[C@@H]1C[C@]2(CC(c3cc(Cl)cc4c3OCC4)=NO2)CN1C(=O)[C@@H](NC(=O)CC1CCCCC1)C(C)(C)C)C(=O)C(=O)NC1CC1	6.30 to 7.00
CCC[C@H](NC(=O)[C@@H]1C[C@]2(CC(c3cccc(Cl)c3)=NO2)CN1C(=O)[C@@H](NC(=O)CC1CCCCC1)C(C)(C)C)C(=O)C(=O)N1CC(F)(F)C1	6.30 to 7.00
CCC[C@H](NC(=O)[C@@H]1C[C@]2(CC(C(=O)NCC)=NO2)CN1C(=O)[C@@H](NC(=O)O[C@H]1CCOC1)C(C)(C)C)C(=O)C(=O)NC1CC1	< 6.30

In: Fill: pKi (HCV NS3 protease domain (Hepatitis C virus genotype 1b, UniProt Q9WMX2)) for this molecule CCC[C@H](NC(=O)[C@@H]1C[C@]2(CC(c3nn(C)cc3Cl)=NO2)CN1C(=O)[C@@H](NC(=O)CC1CCCCC1)C(C)(C)C)C(=O)C(=O)NC1CC1
Out: < 6.30

In: Provide pKi, tested on HCV NS3 protease domain (Hepatitis C virus genotype 1b, UniProt Q9WMX2), for CCC[C@H](NC(=O)[C@@H]1C[C@]2(CC(c3ccc(Cl)cc3)=NO2)CN1C(=O)[C@@H](NC(=O)CC1CCOCC1)C(C)(C)C)C(=O)C(=O)NC1CC1 .
Out: < 6.30

In: Provide pKi, tested on HCV NS3 protease domain (Hepatitis C virus genotype 1b, UniProt Q9WMX2), for CCC[C@H](NC(=O)[C@@H]1C[C@]2(CC(c3ccc4c(c3)OCO4)=NO2)CN1C(=O)[C@@H](NS(=O)(=O)c1cccc2ccccc12)C(C)(C)C)C(=O)C(=O)NC1CC1 .
Out: < 6.30

====

# ASSAY SYSTEM: full-length hepatitis C viral protein NS3•4A (Hepatitis C virus genotype 1a, UniProt P27958)
# Construct: hexa-histidine (N); made in house; host or cells: Sf9 insect cells (baculovirus, pVL1392)
# PROTOCOL DESCRIPTION: biochemical
# Parameters: species or system HCV sub-type strain 1a
# RECORDED CONDITIONS: Enzyme Assay 2 (HCV NS3 Peptide Cleavage Assay) activity, apparent Ki class
pKi: −log10 of the molar value.
QUANTITY: pKi

# annotated cases, reported pKi shown
COMPOUND	pKi
CCC[C@H](NC(=O)[C@@H]1C[C@]2(CC(c3cccc(Cl)c3)=NO2)CN1C(=O)[C@@H](NC(=O)CC1CCCCC1)C(C)(C)C)C(=O)C(=O)Nc1ccc(F)c(F)c1 [Compound 573]	< 6.30
CCC[C@H](NC(=O)[C@@H]1C[C@]2(CC(c3cccc(Cl)c3)=NO2)CN1C(=O)[C@@H](NC(=O)CC1CCCCC1)C(C)(C)C)C(=O)C(=O)NCc1ccccc1 [Compound 77]	> 7.00
CNC(=O)C(=O)[C@H](CC1CC1)NC(=O)[C@@H]1C[C@]2(CC(c3cccc(Cl)c3)=NO2)CN1C(=O)[C@@H](NC(=O)[C@@H]1C[C@H]1c1ccccc1)C(C)(C)C [Compound 696]	> 7.00
CCC[C@H](NC(=O)[C@@H]1C[C@]2(CC(c3cc(F)c(OCC)c(Cl)c3)=NO2)CN1C(=O)[C@@H](NC(=O)CC1CCCCC1)C(C)(C)C)C(=O)C(=O)NC1CC1 [Compound 136]	6.30 to 7.00
CCC[C@H](NC(=O)[C@@H]1C[C@]2(CC(c3cc(F)c(OCC)c(Cl)c3)=NO2)CN1C(=O)[C@@H](NC(=O)CC1CCOCC1)C(C)(C)C)C(=O)C(=O)NC1CC1 [Compound 411]	> 7.00

--- query ---
In: Indicate its recorded pKi; the compound in question is CCC[C@H](NC(=O)[C@@H]1C[C@]2(CC(c3cncc(Cl)c3)=NO2)CN1C(=O)[C@@H](NC(=O)CC1CCCCC1)C(C)(C)C)C(=O)C(=O)NC1CC1 [Compound 292]
Out: > 7.00
